System: Enterococcus faecium
Test: Antimicrobial activity against drug-susceptible Enterococcus faecium ATCC 49624 measured after 18 hrs by broth microdilution method
Type: functional
Conditions: ATCC 49624, 18 h
Listed next: entries and their corresponding MIC.
readoutName: MIC (µg/mL)

1) C[n+]1c(/C=C/c2cc3ccccc3[nH]2)cc(N2CCCCC2)c2ccccc21.[I-] 2
2) CCN(CC)CCNc1cc(/C=C/c2c[nH]c3ccccc23)[n+](C)c2ccccc12.[I-] 32
3) CC1CCN(c2cc(/C=C/c3cc4ccccc4[nH]3)[n+](C)c3ccccc23)CC1.[I-] 4
4) C[n+]1c(/C=C/c2c[nH]c3ccccc23)cc(N2CCCCC2)c2ccccc21.[I-] 2
5) C[n+]1c(/C=C/c2cc3ccccc3[nH]2)cc(N2CCOCC2)c2ccccc21.[I-] 16
6) O=C(O)c1cn(C2CC2)c2cc(N3CCNCC3)c(F)cc2c1=O 32
7) C[n+]1c(/C=C/c2cc3ccccc3[nH]2)cc(NCCN2CCCCC2)c2ccccc21.[I-] 16
8) C[n+]1c(/C=C/c2c[nH]c3ccccc23)ccc2ccccc21.[I-] 32
9) C[n+]1c(/C=C/c2c[nH]c3ccccc23)cc(NCCN2CCOCC2)c2ccccc21.[I-] 32
